The measured values listed here are drawn from the supplement of paper PMC12494721.

Test system: Escherichia coli IAI1
Experiment: fold change of Cadaverine concentration vs plate DMSO controls (fold change (ratio)); higher = more amine produced, active = hit call of the paper (significant change in both replicates, either direction)
Conditions: incubation time: 27 h, anaerobic, 37 °C
Structures can show the parent of a compound that is named as a salt.
QUANTITY_MEASURED: fold change of Cadaverine concentration
Answer using only a numeral; do not append any unit.

Task item: Provide fold change of Cadaverine concentration value for the following molecule: CO[C@@]1(NC(=O)C(C(=O)O)c2ccc(O)cc2)C(=O)N2C(C(=O)O)=C(CSc3nnnn3C)CO[C@@H]21 (some centres not stated) [Moxalactam disodium salt] (20 µM)
Reply: 2

Task item: Provide fold change of Cadaverine concentration value for the following molecule: O=c1[nH]c(=O)n([C@H]2C[C@H](O)[C@@H](CO)O2)cc1C(F)(F)F [Trifluridine] (20 µM)
Reply: 1.04

Task item: Provide fold change of Cadaverine concentration value for the following molecule: OC[C@@H](O)[C@H](O)[C@@H](O)CO [Xylitol] (50 µM)
Reply: 0.916

Task item: Provide fold change of Cadaverine concentration value for the following molecule: CCC(=O)[C@@]1(C)[C@H](C)C[C@H]2[C@@H]3CCC4=CC(=O)C=C[C@]4(C)[C@H]3[C@@H](O)C[C@@]21C [Rimexolone] (20 µM)
Reply: 1.01

Task item: Provide fold change of Cadaverine concentration value for the following molecule: C1N2CN3CN1CN(C2)C3 [Methenamine] (20 µM)
Reply: 1

Task item: Provide fold change of Cadaverine concentration value for the following molecule: CC1(C)O[C@@H]2[C@@H](CO[C@@]3(COS(N)(=O)=O)OC(C)(C)O[C@@H]23)O1 [Topiramate] (20 µM)
Reply: 1.01

Task item: Provide fold change of Cadaverine concentration value for the following molecule: CCOC(=O)C1=C[C@@H](OC(CC)CC)[C@H](NC(C)=O)[C@@H](N)C1 [Oseltamivir phosphate] (20 µM)
Reply: 1.03

====

Kindly supply the reported fold change of Putrescine concentration values for the records listed here.
System: Escherichia coli IAI1
Assay: fold change of Putrescine concentration vs plate DMSO controls (fold change (ratio)); higher = more amine produced, active = hit call of the paper (significant change in both replicates, either direction)
Details: incubation time: 27 h, anaerobic, 37 °C
Structures can show the parent of a compound that is named as a salt.
Answer using only a numeral; do not append any unit.

Task item: Provide fold change of Putrescine concentration value for the following molecule: O=c1[nH]c(=O)n([C@H]2C[C@H](O)[C@@H](CO)O2)cc1/C=C/Br [Brivudine] (20 µM)
Reply: 0.968

Task item: Provide fold change of Putrescine concentration value for the following molecule: CC(=O)O[C@]1(C(C)=O)CC[C@H]2[C@@H]3C=C(Cl)C4=CC(=O)CC[C@]4(C)[C@H]3CC[C@@]21C [Chlormadinone acetate] (20 µM)
Reply: 1.04

Task item: Provide fold change of Putrescine concentration value for the following molecule: C[C@]12CC[C@H]3[C@@H](CCC4=CC(=O)CC[C@@]43C)[C@@H]1CC[C@@H]2C(=O)CO [Deoxycorticosterone] (20 µM)
Reply: 1.25

Task item: Provide fold change of Putrescine concentration value for the following molecule: CC(=O)Oc1ccccc1C(=O)Nc1ncc([N+](=O)[O-])s1 [Nitazoxanide] (20 µM)
Reply: 1.02

Task item: Provide fold change of Putrescine concentration value for the following molecule: CC(=O)OCC(=O)[C@@]1(O)CC[C@H]2[C@@H]3CCC4=CC(=O)CC[C@]4(C)[C@H]3[C@@H](O)C[C@@]21C [Cortisol acetate] (20 µM)
Reply: 0.987

Task item: Provide fold change of Putrescine concentration value for the following molecule: CCN(CC)C(C)CN1c2ccccc2Sc2ccccc21 (configuration not stated) [Ethopropazine hydrochloride] (20 µM)
Reply: 1.05

Task item: Provide fold change of Putrescine concentration value for the following molecule: N#CC(c1ccc(Cl)cc1)c1c(Cl)cc(-n2ncc(=O)[nH]c2=O)cc1Cl (configuration not stated) [Diclazuril] (20 µM)
Reply: 0.911

====

System: Klebsiella aerogenes DSM 30053
Experiment: fold change of Cadaverine concentration vs plate DMSO controls (fold change (ratio)); higher = more amine produced, active = hit call of the paper (significant change in both replicates, either direction)
Conditions: incubation time: 27 h, anaerobic, 37 °C
Where a name gives a salt, the structure may show the parent alone.
QUANTITY_MEASURED: fold change of Cadaverine concentration
Answer using only a numeral; do not append any unit.

Task item: Provide fold change of Cadaverine concentration value for the following compound: CC1(C)[C@H](C(=O)O)N2C(=O)C[C@H]2S1(=O)=O [Sulbactam] (20 µM)
Reply: 1.01

Task item: Provide fold change of Cadaverine concentration value for the following compound: CCn1cc(C(=O)O)c(=O)c2cc(F)c(N3CCNCC3)nc21 [Enoxacin] (20 µM)
Reply: 0.961

Task item: Provide fold change of Cadaverine concentration value for the following compound: CNC[C@H](O)[C@@H](O)[C@H](O)[C@H](O)CO [Meglumine] (20 µM)
Reply: 1.06

Task item: Provide fold change of Cadaverine concentration value for the following compound: CCOc1ccc(NC(C)=O)cc1 [Phenacetin] (20 µM)
Reply: 1.01

Task item: Provide fold change of Cadaverine concentration value for the following compound: CN[C@@H]1[C@@H](O[C@H]2O[C@H](CO)[C@@H](N)[C@H](O)[C@H]2O)OC2C[C@@H](N)[C@@H](O[C@H]3[C@H](O)[C@@H](O)[C@H](N)C[C@@H]3N)OC2[C@@H]1O (stereo not given in full) [Apramycin] (20 µM)
Reply: 1.02

Task item: Provide fold change of Cadaverine concentration value for the following compound: c1ccc2[nH]c(-c3cscn3)nc2c1 [Tiabendazole] (20 µM)
Reply: 0.979

Task item: Provide fold change of Cadaverine concentration value for the following compound: Oc1c(I)cc(Cl)c2cccnc12 [Clioquinol] (20 µM)
Reply: 0.991

Task item: Provide fold change of Cadaverine concentration value for the following compound: CC[C@@H]([C@H](C)O)n1ncn(-c2ccc(N3CCN(c4ccc(OC[C@@H]5CO[C@@](Cn6cncn6)(c6ccc(F)cc6F)C5)cc4)CC3)cc2)c1=O [Posaconazole hydrate] (20 µM)
Reply: 0.992

Task item: Provide fold change of Cadaverine concentration value for the following compound: Cc1c(C(=O)NN2CCCCC2)nn(-c2ccc(Cl)cc2Cl)c1-c1ccc(Cl)cc1 [Rimonabant] (20 µM)
Reply: 0.998

Task item: Provide fold change of Cadaverine concentration value for the following compound: CO[C@H]1/C=C/O[C@@]2(C)Oc3c(C)c(O)c4c(O)c(c(/C=N/N5CCN(C)CC5)c(O)c4c3C2=O)NC(=O)/C(C)=C\C=C\[C@H](C)[C@H](O)[C@@H](C)[C@@H](O)[C@@H](C)[C@H](OC(C)=O)[C@@H]1C [Rifampicin] (20 µM)
Reply: 1.06

Task item: Provide fold change of Cadaverine concentration value for the following compound: CN(Cc1cnc2nc(N)nc(N)c2n1)c1ccc(C(=O)N[C@@H](CCC(=O)O)C(=O)O)cc1 [Amethopterin] (20 µM)
Reply: 1.02

Task item: Provide fold change of Cadaverine concentration value for the following compound: Cc1c(Cl)cccc1Nc1ccccc1C(=O)O [Tolfenamic acid] (20 µM)
Reply: 1.01

Task item: Provide fold change of Cadaverine concentration value for the following compound: CCCOc1cc(N)ccc1C(=O)OCCN(CC)CC [Propoxycaine hydrochloride] (20 µM)
Reply: 1.01

Task item: Provide fold change of Cadaverine concentration value for the following compound: c1coc(CNc2ncnc3[nH]cnc23)c1 [Kinetin] (20 µM)
Reply: 1.01

Task item: Provide fold change of Cadaverine concentration value for the following compound: CC1(C)[C@@H](OC(=O)CCC(=O)O)CC[C@]2(C)[C@H]3C(=O)C=C4[C@@H]5C[C@@](C)(C(=O)O)CC[C@]5(C)CC[C@@]4(C)[C@]3(C)CC[C@@H]12 [Carbenoxolone disodium salt] (20 µM)
Reply: 0.993

Task item: Provide fold change of Cadaverine concentration value for the following compound: CN1CC(=O)N2[C@H](c3ccc4c(c3)OCO4)c3[nH]c4ccccc4c3C[C@@H]2C1=O [Tadalafil] (20 µM)
Reply: 0.971

Task item: Provide fold change of Cadaverine concentration value for the following compound: Cc1c(C)c2c(c(C)c1O)CCC(C)(COc1ccc(CC3SC(=O)NC3=O)cc1)O2 (stereo not given) [Troglitazone] (20 µM)
Reply: 1.01

Task item: Provide fold change of Cadaverine concentration value for the following compound: O=C1CN2Cc3c(ccc(Cl)c3Cl)N=C2N1 [Anagrelide] (20 µM)
Reply: 1.01

Task item: Provide fold change of Cadaverine concentration value for the following compound: O=C(O)C1CSCN1 (stereo not given) [Timonacic] (20 µM)
Reply: 1

Task item: Provide fold change of Cadaverine concentration value for the following compound: OCc1cc(C(O)CNCCCCCCOCCCCc2ccccc2)ccc1O (stereo not given) [Salmeterol] (20 µM)
Reply: 0.986

Task item: Provide fold change of Cadaverine concentration value for the following compound: COC(c1ccccc1)(c1ccccc1)[C@H](Oc1nc(C)cc(C)n1)C(=O)O [Ambrisentan] (20 µM)
Reply: 0.997

Task item: Provide fold change of Cadaverine concentration value for the following compound: C/C(=C(\CCOC(=O)c1ccccc1)SS/C(CCOC(=O)c1ccccc1)=C(/C)N(C=O)Cc1cnc(C)nc1N)N(C=O)Cc1cnc(C)nc1N [Bisbentiamine] (20 µM)
Reply: 0.983

Task item: Provide fold change of Cadaverine concentration value for the following compound: Cc1cc(=O)oc2cc(O)ccc12 [Hymecromone] (20 µM)
Reply: 0.994

Task item: Provide fold change of Cadaverine concentration value for the following compound: Oc1c(Cl)cc(Cl)c2cccnc12 [Chloroxine] (20 µM)
Reply: 1.01

Task item: Provide fold change of Cadaverine concentration value for the following compound: CN(C)c1cc(NC(=O)CNC(C)(C)C)c(O)c2c1C[C@H]1C[C@H]3[C@H](N(C)C)C(=O)C(C(N)=O)=C(O)[C@@]3(O)C(=O)C1=C2O [Tigecycline] (20 µM)
Reply: 1.03

Task item: Provide fold change of Cadaverine concentration value for the following compound: CCCCC1=NC2(CCCC2)C(=O)N1Cc1ccc(-c2ccccc2-c2nnn[nH]2)cc1 [Irbesartan] (20 µM)
Reply: 0.995

Task item: Provide fold change of Cadaverine concentration value for the following compound: O=C(O)c1cc(=O)c2ccccc2o1 [Chromocarb] (20 µM)
Reply: 0.979

Task item: Provide fold change of Cadaverine concentration value for the following compound: CC(C)NCC(O)COc1ccc(COCCOC(C)C)cc1 (stereo not given) [Bisoprolol hemifumarate] (20 µM)
Reply: 1.13

Task item: Provide fold change of Cadaverine concentration value for the following compound: O=C(C1CCCCC1)N1CC(=O)N2CCc3ccccc3C2C1 (stereo not given) [Praziquantel] (20 µM)
Reply: 0.978

Task item: Provide fold change of Cadaverine concentration value for the following compound: NC(=O)c1cc[n+](CC2=C(C(=O)[O-])N3C(=O)[C@@H](NC(=O)[C@@H](c4ccccc4)S(=O)(=O)O)[C@H]3SC2)cc1 [Cefsulodin sodium salt] (20 µM)
Reply: 1
